Reported clearance values for a set of compounds
Assay: Rat pharmacokinetic study (intravenous and oral)
Type: in vivo
Conditions: male, plasma, Sprague-Dawley rats, intravenous, 1 mg/kg, solution
Number in mL/min/kg, nothing else.

For this compound ( Cc1cnc(Nc2cnn(C3CCN(C(=O)C4CC4)CC3)c2)nc1-c1ccc(C(=O)NCC#N)cc1 ), measured clearance is 8.4

// clearance lookup, compound = Cc1cnc(Nc2cnn(C)c2)nc1-c1ccc(C(=O)NCC(C)(C)C#N)cc1 , result: 18.9

Data point: Cc1cnc(Nc2cnn(C3CC3)c2)nc1-c1ccc(C(=O)NCC#N)cc1 ; clearance = 29.8

Memo: Cc1cnc(Nc2cnn(CC(F)(F)F)c2)nc1-c1ccc(C(=O)NCC#N)cc1 , reported clearance: 22.9

Summary for this compound, Cc1cnc(Nc2cnn(C3CCOCC3)c2)nc1-c1ccc(C(=O)NCC#N)cc1 : clearance is 15.8

// clearance lookup, compound = C[C@@H](C#N)NC(=O)c1ccc(-c2nc(Nc3cnn(C4CCOCC4)c3)ncc2Cl)cc1 , result: 17.5

clearance in this record for Cc1cnc(Nc2cnn(CC#N)c2)nc1-c1ccc(C(=O)NCC#N)cc1 : 19.4

Notebook: Cc1cnc(Nc2cnn(C)c2)nc1-c1ccc(C(=O)N[C@@H](C)C#N)cc1 , clearance read as 33.1

Looking up Cc1cnc(Nc2cnn(C)c2)nc1-c1ccc(C(=O)NCC2(C#N)CC2)cc1 , I see its clearance listed as 27.1

Looking up Cc1cnc(Nc2cnn(C3CCN(C(=O)C4(C)CC4)CC3)c2)nc1-c1ccc(C(=O)NCC#N)cc1 , I see its clearance listed as 6.3

----------
Biological target: JAK2 (Homo sapiens, UniProt O60674)
Construct: purchased Carna Biosciences
Sequence (O60674 whole entry): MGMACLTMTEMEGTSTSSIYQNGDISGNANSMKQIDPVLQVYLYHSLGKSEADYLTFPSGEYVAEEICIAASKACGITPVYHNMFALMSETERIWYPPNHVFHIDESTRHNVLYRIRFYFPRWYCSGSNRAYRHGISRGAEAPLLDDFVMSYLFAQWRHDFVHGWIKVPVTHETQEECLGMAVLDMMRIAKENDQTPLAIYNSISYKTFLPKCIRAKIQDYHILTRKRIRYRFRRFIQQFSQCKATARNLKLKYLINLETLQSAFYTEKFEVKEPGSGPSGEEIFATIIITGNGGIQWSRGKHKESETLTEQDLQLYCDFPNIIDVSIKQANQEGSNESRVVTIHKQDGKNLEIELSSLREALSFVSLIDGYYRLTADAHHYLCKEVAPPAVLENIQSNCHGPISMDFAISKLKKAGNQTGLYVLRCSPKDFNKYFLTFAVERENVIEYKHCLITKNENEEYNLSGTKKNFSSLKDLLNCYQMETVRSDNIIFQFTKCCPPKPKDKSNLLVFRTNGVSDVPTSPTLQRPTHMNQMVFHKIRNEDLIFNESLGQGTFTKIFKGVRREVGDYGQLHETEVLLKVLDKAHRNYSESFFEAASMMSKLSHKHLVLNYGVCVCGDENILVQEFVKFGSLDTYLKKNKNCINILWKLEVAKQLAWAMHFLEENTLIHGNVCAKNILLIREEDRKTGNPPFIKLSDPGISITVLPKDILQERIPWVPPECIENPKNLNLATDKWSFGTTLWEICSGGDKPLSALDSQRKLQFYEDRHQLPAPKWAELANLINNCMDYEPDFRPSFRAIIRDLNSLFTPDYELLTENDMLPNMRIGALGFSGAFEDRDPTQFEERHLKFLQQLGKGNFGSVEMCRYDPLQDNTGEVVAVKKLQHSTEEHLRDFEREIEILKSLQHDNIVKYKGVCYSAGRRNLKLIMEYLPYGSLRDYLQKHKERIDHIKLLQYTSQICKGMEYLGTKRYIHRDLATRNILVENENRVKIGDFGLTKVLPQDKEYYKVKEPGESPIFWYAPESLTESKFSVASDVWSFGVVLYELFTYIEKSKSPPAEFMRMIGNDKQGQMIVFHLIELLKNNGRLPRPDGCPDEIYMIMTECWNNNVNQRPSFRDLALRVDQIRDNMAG
Experiment: JAK2 microfluidic kinase assay (Caliper EZ Reader II, FAM labeled peptide substrate)
Type: biochemical
Conditions: IC50 JAK2 ([…]) (1 mM ATP), 1 mM ATP
parameter: IC50 (nM)
Response body: numeric value in nM, unit text excluded.

1) Cc1cnc(Nc2cnn(C3CCN(CC#N)CC3)c2)nc1-c1ccc(C(=O)NCC#N)cc1 : 1.34
2) Cc1cnc(Nc2cnn(C3CCNCC3)c2)nc1-c1ccc(C(=O)N[C@@H](C)C#N)cc1 : 0.78
3) C[C@@H](C#N)NC(=O)c1ccc(-c2nc(Nc3cnn(C4CCN(C)CC4)c3)ncc2Cl)cc1 : 0.57
4) CCNC(=O)c1ccc(-c2nc(Nc3cnn(C)c3)ncc2C)cc1 : 4520
5) C[C@@H](C#N)NC(=O)c1ccc(-c2nc(Nc3cnn(C4CCN(C(=O)C(C)(C)C)CC4)c3)ncc2F)cc1 : 39.1
6) CCC[C@@H](C#N)NC(=O)c1ccc(-c2nc(Nc3cnn(C4CCNCC4)c3)ncc2C)cc1 : 0.51
7) Cc1cnc(Nc2cnn(C3CCN(CCO)CC3)c2)nc1-c1ccc(C(=O)N[C@@H](C)C#N)cc1 : 0.91
8) Cn1cc(Nc2ncc(Cl)c(-c3ccc(C(=O)NCC4(C#N)CC4)cc3)n2)cn1 : 47.1

According to the records, this compound Cc1cnc(Nc2cn[nH]c2)nc1-c1ccc(C(=O)N[C@@H](C)C#N)cc1 displays IC50 of 30.8

Please fill in: IC50 reported for Cc1cnc(Nc2cnn(C3CCN(C(=O)C(C)(C)O)CC3)c2)nc1-c1ccc(C(=O)NC(C)C#N)cc1 (stereo in doubt) = 0.86

// Cc1cnc(Nc2cnn(C)c2)nc1-c1ccc(C(=O)NC(C)C)cc1 : IC50 value = 1450

Item: CC[C@@H](C#N)NC(=O)c1ccc(-c2nc(Nc3cnn(C4CCCNC4)c3)ncc2C)cc1 (some centres unmarked) | IC50: 2.39

Lookup result for C[C@@H](C#N)NC(=O)c1ccc(-c2nc(Nc3cnn(CCO)c3)ncc2Cl)cc1 ; measured IC50: 25.2

The compound listed as COC[C@@H](C#N)NC(=O)c1ccc(-c2nc(Nc3cnn(C4CC4)c3)ncc2C)cc1 has a reported IC50 of 13.7

The recorded IC50 for Cc1cnc(Nc2cnn([C@H]3CC[C@@H](C#N)CC3)c2)nc1-c1ccc(C(=O)NCC(F)(F)F)cc1 is 1.21
